# study-system: 28-AcSMT (Acanthamoeba castellanii, UniProt L8GKC5)
# Construct: recombinant 28-AcSMT (XP_004335307) expressed in E. coli, lysate preparation
# Sequence (L8GKC5 entry or part of it): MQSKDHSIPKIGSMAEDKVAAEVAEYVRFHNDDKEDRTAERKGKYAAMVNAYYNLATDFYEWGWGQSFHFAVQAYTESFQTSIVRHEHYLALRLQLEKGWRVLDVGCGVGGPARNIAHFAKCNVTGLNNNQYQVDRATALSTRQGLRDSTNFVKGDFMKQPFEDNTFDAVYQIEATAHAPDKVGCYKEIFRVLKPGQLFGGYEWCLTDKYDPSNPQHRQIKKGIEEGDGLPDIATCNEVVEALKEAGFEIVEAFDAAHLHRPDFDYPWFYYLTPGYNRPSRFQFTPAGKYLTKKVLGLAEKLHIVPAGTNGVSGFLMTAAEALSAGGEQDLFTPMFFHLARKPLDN
# assay-explanation: steady-state inhibition of […]([…])-methylene lophenol methylation by recombinant enzyme, GC-MS; partition ratio and substrate protection
property: Ki (µM)
Response body: numeric value in µM, unit text excluded.

Summary: "CC(C)=C/C=C/[C@@H](C)[C@H]1CC[C@H]2C3=CC=C4C[C@@H](O)CC[C@]4(C)[C@H]3CC[C@]12C" , 28-AcSMT (Acanthamoeba castellanii, UniProt L8GKC5), Ki = 8
